Entries annotated with measured IC50
Target: FAK kinase (catalytic construct FAK(410-689)) (Homo sapiens (Human), UniProt Q05397)
Sequence (Q05397 410-689): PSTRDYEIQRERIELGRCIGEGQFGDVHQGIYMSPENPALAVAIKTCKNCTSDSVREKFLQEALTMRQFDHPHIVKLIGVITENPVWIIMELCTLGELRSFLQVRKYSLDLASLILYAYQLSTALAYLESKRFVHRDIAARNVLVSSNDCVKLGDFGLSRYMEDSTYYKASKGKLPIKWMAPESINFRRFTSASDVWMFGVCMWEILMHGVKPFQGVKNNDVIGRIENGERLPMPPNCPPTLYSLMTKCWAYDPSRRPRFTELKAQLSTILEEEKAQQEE
Assay: FAKcd kinase ELISA (inhibition of poly-glu-tyr phosphorylation by FAK(410-689))
Format: biochemical
Conditions: 50 μM final ATP
Response body: numeric value in nM, unit text excluded.

Known IC50 results, listed for orientation:
CC(=O)NCC(=O)NCc1cccc(Nc2ncc(C(F)(F)F)c(NCc3cccnc3N(C)S(C)(=O)=O)n2)c1: 0.6
CN(c1ncccc1CNc1nc(Nc2nccc(N)n2)ncc1C(F)(F)F)S(C)(=O)=O: 32.8

// CC(C)[C@H](CO)NC(=O)c1cccc(Nc2ncc(C(F)(F)F)c(NCc3cccnc3N(C)S(C)(=O)=O)n2)c1 : IC50 value = 3.74

Quick note, IC50 for CC(O)c1ccc(Nc2ncc(C(F)(F)F)c(NCc3ncccc3N(C)S(C)(=O)=O)n2)cc1 (stereo not shown) landed at 0.914

###

Target: FAK kinase (catalytic construct FAK(410-689)) (Homo sapiens (Human), UniProt Q05397)
Observation type: pIC50
Keep in mind that pIC50 stands for -log10 of concentration in molar terms.

CC1CCN(C(=O)c2cccc(Nc3ncc(C(F)(F)F)c(NCc4cccnc4N(C)S(C)(=O)=O)n3)c2)CC1: 8.35
C[C@H](N)c1ccc(Nc2ncc(C(F)(F)F)c(NCc3cccc(N(C)S(C)(=O)=O)c3)n2)cc1: 9.01

Now look at this one.
FAK kinase (catalytic construct FAK(410-689)) (Homo sapiens (Human), UniProt Q05397) assay, compound CC(O)c1ccc(Nc2ncc(C(F)(F)F)c(NCc3nccnc3N(C)S(C)(=O)=O)n2)cc1 (centres unmarked) , recorded pIC50 = 9.12

###

Biological target: FAK kinase (catalytic construct FAK(410-689)) (Homo sapiens (Human), UniProt Q05397)
Assay: FAKcd kinase ELISA (inhibition of poly-glu-tyr phosphorylation by FAK(410-689))
Format: biochemical
Conditions: 50 μM final ATP
Listing: IC50 of selected compounds
Only the number, expressed in nM, is required.

See these solved cases before continuing.
CN(c1ncccc1CNc1nc(Nc2ccc(C#N)cc2)ncc1C(F)(F)F)S(C)(=O)=O: 0.6
Cc1ccc(CNc2nc(Nc3ccccc3)ncc2C(F)(F)F)c(N(C)S(C)(=O)=O)n1: 0.59
CN(c1ncccc1CNc1nc(NC2CCC2)ncc1C(F)(F)F)S(C)(=O)=O: 497

The recorded IC50 for CN(c1cccc(CNc2nc(Nc3ccc(S(N)(=O)=O)cc3)ncc2Br)c1)S(C)(=O)=O is 15.6

// CN(c1ncccc1CNc1nc(Nc2ccc(C3COC(C)(C)O3)cc2)ncc1C(F)(F)F)S(C)(=O)=O (stereo not drawn) : IC50 value = 1.19

Input CN(c1ncccc1CNc1nc(Nc2ccc(C(=O)N3CCC(F)(F)C3)cc2)ncc1C(F)(F)F)S(C)(=O)=O . Output IC50: 0.6

Form field IC50, entry CN(c1ncccc1CNc1nc(NC2CCN(C(=O)CC(F)(F)F)CC2)ncc1C(F)(F)F)S(C)(=O)=O : 165

Record CN(c1ncccc1CNc1nc(Nc2cccc(C(=O)N3CCC(F)(F)C3)c2)ncc1C(F)(F)F)S(C)(=O)=O , field IC50: 5.93

Lab note: measured IC50 of CN(c1ncccc1CNc1nc(Nc2ccc(C(=O)NCCCO)cc2)ncc1C(F)(F)F)S(C)(=O)=O was 0.82

IC50 in this record for CN(C)CCNC(=O)c1cccc(Nc2ncc(C(F)(F)F)c(NCc3cccnc3N(C)S(C)(=O)=O)n2)c1 : 3.2

Record summary for CC1CCCN1C(=O)c1cccc(Nc2ncc(C(F)(F)F)c(NCc3cccnc3N(C)S(C)(=O)=O)n2)c1 (stereo not drawn) : reported IC50 = 9.75

Lab book: IC50 of CN(c1ncccc1CNc1nc(Nc2cccc(C(=O)NCC3(C)COC3)c2)ncc1C(F)(F)F)S(C)(=O)=O noted as 0.84

Ref: patent US10450297B2
